Value source: the supplement of paper PMC10567573

Test: protein stability index of a GFP-peptide fusion (GPS, HEK-293T) (PSI 1-6); higher = more stable;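 note: 24-mer peptide tiles fused after GFP, lentivirally expressed, FACS-sorted into six equal bins by GFP/DsRed ratio, decoded by Illumina sequencing, PSI is the read-weighted mean bin number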
Details: treatment: DMSO; c terminus: a fixed tail appended

{"sequence content": "HQPPYIIAVLPRYVEIRTFEPRLL [VPS39]", "protein stability index": 2.61}
{"sequence content": "IGSKNGGKTTIILRCLDRDEPSKP [DYNC2LI1]", "protein stability index": 2.54}
{"sequence content": "SLCKVFGAHKDCQVAPLTHVFQRQ [TRIM55]", "protein stability index": 2.41}
{"sequence content": "PCSPDSSSVCVQGRCIHAGCDRII [ADAMTS4]", "protein stability index": 3.84}
{"sequence content": "ASKLKETSPLTAEKLCIYTDNSIK [CCND2]", "protein stability index": 4}
{"sequence content": "SPEKFQIEANFPRRVLPCIPSEEW [FAF2]", "protein stability index": 3.75}
{"sequence content": "DGENLKNEEETPSCMASLWTAPLV [CDC25A]", "protein stability index": 4.48}
{"sequence content": "AGLNKDKETEERTDGERVAEVAPE [SDE2]", "protein stability index": 5.46}
{"sequence content": "YLTVKVWDLNMENRPIETYQVHDY [PPP2R2B]", "protein stability index": 2.25}
{"sequence content": "RDSLSHLVPALRLPGRKLVSSAVS [INTS4]", "protein stability index": 3.04}
{"sequence content": "NGHDCWSLISLSNNTGKNLELKFV [TENT5D]", "protein stability index": 2.51}
{"sequence content": "EATHEPAAARIRAQVPDTRWSRVG", "protein stability index": 4.62}
{"sequence content": "LRTRGRTRGWVQTLARMSRRTRGP [C6orf223]", "protein stability index": 3.6}
{"sequence content": "HEVKDNYIPVIKRALNSVPVIIAA [RHOBTB3]", "protein stability index": 2.34}
{"sequence content": "TYRSLLESEDCKLPSNPCATTNAC [KRT33B]", "protein stability index": 3.99}
{"sequence content": "PCVAESPTVHVEVHQRGSSTAKKE [TRIP13]", "protein stability index": 5.42}
{"sequence content": "RPRRRDGPEHATRLNGTAKGERRR [DVL3]", "protein stability index": 5.06}
{"sequence content": "FDEKIVPILKRKLPGSDVSGRLMG [FBXO28]", "protein stability index": 2.75}
{"sequence content": "DLTSSSSDELSWIIELLEKDGMAF [ELF3]", "protein stability index": 2.86}
{"sequence content": "GATPSYHWDLAELLPNQSHGNQSA [SLC22A15]", "protein stability index": 4.06}
{"sequence content": "FYRSTAPSEDIWKKFELVPSPPTS [MYCL]", "protein stability index": 2.67}
{"sequence content": "AAARIRAQVPDTRWSRVGGQRFYS", "protein stability index": 2.71}
{"sequence content": "HSNGPTDLSMKGGASTTSTTPSAL [NOL4L]", "protein stability index": 4.94}
{"sequence content": "AREGRETLKCLSHHVADAYTSSQK [TOR1AIP2]", "protein stability index": 4.48}
{"sequence content": "YSLAPNTPINQNVSLHQASLGGCS [NFE2L1]", "protein stability index": 3.54}
{"sequence content": "FEDEVKRLGWQQQAELQELEERLQ [MTUS2]", "protein stability index": 4.17}
{"sequence content": "KVHYLFPDGKEMAEEYDEKTSELL [DPCD]", "protein stability index": 4.32}
{"sequence content": "LKRKGKTDSPWIKPARKRRRRSRK [EHMT1]", "protein stability index": 5.1}
{"sequence content": "SKQTEKDPGVQELEALIDTIQKQL [EFHC1]", "protein stability index": 3.83}
{"sequence content": "KRKRVKQRINTYVFVGNQLIPQPL [PCMTD1]", "protein stability index": 2.38}
{"sequence content": "AACSSKRSPIIDVKNDRDRVGHKS [SERPINB5]", "protein stability index": 4.85}
{"sequence content": "IETGENVTGMELEFKRLASSKAHT [PTPRD]", "protein stability index": 4.35}
{"sequence content": "PVAMRVAKLAINQGMEVDLVTGLA [AUH]", "protein stability index": 2.65}
{"sequence content": "TINNFSFCREEMGEVLKSSTFSSG [SPOPL]", "protein stability index": 2.33}
{"sequence content": "NIVFGTGPRVGEALVSHPEVPLIS [ALDH8A1]", "protein stability index": 2.9}
{"sequence content": "ADRQCQLTFGPDSRHCPQLPPPCA [ADAMTS4]", "protein stability index": 4.08}
{"sequence content": "FSASERLSLKRELSWYRGRRPRTA [HESX1]", "protein stability index": 2.7}
{"sequence content": "TWVPMFLSTLLAPYQALRLWARGT [SOAT2]", "protein stability index": 2.81}
{"sequence content": "GLTDVSQIITVTVQTGLDQYQQVP [IQUB]", "protein stability index": 2.26}
{"sequence content": "DSARADDARQLFVLAGAAEEGFMT [GNAI1]", "protein stability index": 4.21}
{"sequence content": "PDFNPEKHGSLNRYHNSHPLRERA [YJU2B]", "protein stability index": 4.36}
{"sequence content": "EPNNIVVLLQTSPYHVDSLLQLSD [TCF25]", "protein stability index": 2.44}
{"sequence content": "GVCGDRATGFHFNAMTCEGCKGFF [VDR]", "protein stability index": 2.28}
{"sequence content": "FCNISLFEDLPLQEPQSPQKLNPG [PLAGL1]", "protein stability index": 3}
{"sequence content": "LVEHYKKAPIFTSEHGEKLYLVRA [NCK2]", "protein stability index": 2.28}
{"sequence content": "EGGLYFERRPVAQSTDGARGKRGY [SPSB2]", "protein stability index": 4.55}
{"sequence content": "VVYSKAASVPKVETVKSDNKDDDI [EIF5]", "protein stability index": 5.23}
{"sequence content": "LLLLQVSSSYAGQFRVIGPRHPIR [MOG]", "protein stability index": 2.53}
{"sequence content": "NWLGRPSKVLSLQDLCCRTIVSCT [RAB40A]", "protein stability index": 2.74}
{"sequence content": "CVSHLIIVTVHYGCASFIYLRPQS [OR10K2]", "protein stability index": 2.99}
{"sequence content": "QYLALPERAELAASLGLTQTQVKI [DLX1]", "protein stability index": 2.95}
{"sequence content": "ECRSSVTSDSEGAHVNTLHSGTKR [PHTF1]", "protein stability index": 4.87}
{"sequence content": "ALQNYNNELVKCIEELCQKREELC [SSNA1]", "protein stability index": 2.94}
